Tested on: Histone deacetylase 8 (Homo sapiens)
Sequence (Q9BY41 whole entry): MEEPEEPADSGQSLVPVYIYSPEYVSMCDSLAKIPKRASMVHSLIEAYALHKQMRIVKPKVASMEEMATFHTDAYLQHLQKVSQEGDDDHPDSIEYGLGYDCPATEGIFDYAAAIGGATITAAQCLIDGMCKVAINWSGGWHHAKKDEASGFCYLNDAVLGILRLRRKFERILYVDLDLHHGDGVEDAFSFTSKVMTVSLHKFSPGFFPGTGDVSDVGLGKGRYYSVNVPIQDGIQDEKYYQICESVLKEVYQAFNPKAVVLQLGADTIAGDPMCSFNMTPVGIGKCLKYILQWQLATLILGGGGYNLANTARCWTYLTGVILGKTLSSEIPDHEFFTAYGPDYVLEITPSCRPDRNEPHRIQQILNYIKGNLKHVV
Protocol description: Inhibition of C-terminal His-tagged human recombinant HDAC8 (1 to 377 end residues) expressed in Sf9 cells using Ac-peptide as substrate incubated for 1 hr by plate reader analysis
Experimental readout: IC50

1) COc1ncc(-c2cc(OCCCCCCC(=O)Nc3ccccc3N)c3ncnc(C)c3c2)cc1NS(=O)(=O)c1ccc(F)cc1F = > 10 µM
2) COc1ncc(-c2cc(OCCCc3ccc(C(=O)Nc4ccccc4N)cc3)c3ncnc(C)c3c2)cc1NS(=O)(=O)c1ccc(F)cc1F = > 10 µM

---

Protocol description: AUC(0 to t) in ICR mouse at 60 mg/kg, po measured after 24 hrs by LC-MS/MS analysis
Assay type: ADME, organism-based
Assay setup: in vivo
Experimental readout: AUC(0-t) at 24 h

1. COc1ncc(-c2cc(OCCCc3ccc(C(=O)Nc4ccccc4N)cc3)c3ncnc(C)c3c2)cc1NS(=O)(=O)c1ccc(F)cc1F = 1230 ng·h/mL
2. COc1ncc(-c2cc(OCCCCCCC(=O)Nc3ccccc3N)c3ncnc(C)c3c2)cc1NS(=O)(=O)c1ccc(F)cc1F = 5020 ng·h/mL

---

Tested on: Protein deacetylase HDAC6 (Homo sapiens, UniProt Q9UBN7)
Sequence (Q9UBN7 whole entry): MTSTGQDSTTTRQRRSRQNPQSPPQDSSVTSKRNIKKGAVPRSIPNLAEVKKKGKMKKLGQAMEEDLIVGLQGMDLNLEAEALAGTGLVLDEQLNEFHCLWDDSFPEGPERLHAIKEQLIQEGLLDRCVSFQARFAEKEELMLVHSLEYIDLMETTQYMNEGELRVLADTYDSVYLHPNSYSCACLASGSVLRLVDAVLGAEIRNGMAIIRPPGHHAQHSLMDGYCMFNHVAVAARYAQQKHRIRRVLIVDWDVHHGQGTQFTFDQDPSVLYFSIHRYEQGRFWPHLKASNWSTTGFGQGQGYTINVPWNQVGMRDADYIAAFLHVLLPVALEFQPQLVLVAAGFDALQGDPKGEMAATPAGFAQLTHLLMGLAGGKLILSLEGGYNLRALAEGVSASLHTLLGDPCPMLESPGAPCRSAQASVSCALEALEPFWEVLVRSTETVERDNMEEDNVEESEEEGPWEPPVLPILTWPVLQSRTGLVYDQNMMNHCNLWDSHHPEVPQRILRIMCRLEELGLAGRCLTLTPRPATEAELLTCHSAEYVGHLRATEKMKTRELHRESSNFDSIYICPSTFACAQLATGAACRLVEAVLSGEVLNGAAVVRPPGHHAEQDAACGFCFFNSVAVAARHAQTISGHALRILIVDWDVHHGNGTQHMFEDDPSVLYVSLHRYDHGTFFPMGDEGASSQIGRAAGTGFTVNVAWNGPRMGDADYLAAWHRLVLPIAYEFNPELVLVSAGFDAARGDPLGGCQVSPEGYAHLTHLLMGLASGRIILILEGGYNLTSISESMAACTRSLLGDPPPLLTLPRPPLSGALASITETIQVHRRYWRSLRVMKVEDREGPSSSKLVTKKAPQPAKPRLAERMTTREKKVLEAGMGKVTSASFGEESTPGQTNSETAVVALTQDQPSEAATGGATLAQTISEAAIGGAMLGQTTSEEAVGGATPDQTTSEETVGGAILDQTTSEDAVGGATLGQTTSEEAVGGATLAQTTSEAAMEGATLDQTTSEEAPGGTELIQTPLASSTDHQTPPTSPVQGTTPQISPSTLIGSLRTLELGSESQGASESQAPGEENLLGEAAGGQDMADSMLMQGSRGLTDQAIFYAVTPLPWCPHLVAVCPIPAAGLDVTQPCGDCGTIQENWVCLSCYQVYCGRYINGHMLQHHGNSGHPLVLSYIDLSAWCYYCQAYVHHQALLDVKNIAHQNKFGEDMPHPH
pIC50: −log10 of the molar value.
Experimental readout: pIC50

1. COc1ncc(-c2cc(OCCCc3ccc(C(=O)Nc4ccccc4N)cc3)c3ncnc(C)c3c2)cc1NS(=O)(=O)c1ccc(F)cc1F = < 5.00

---

Tested on: Phosphatidylinositol 4,5-bisphosphate 3-kinase catalytic subunit alpha isoform (Homo sapiens, UniProt P42336)
Sequence (P42336 whole entry, canonical isoform): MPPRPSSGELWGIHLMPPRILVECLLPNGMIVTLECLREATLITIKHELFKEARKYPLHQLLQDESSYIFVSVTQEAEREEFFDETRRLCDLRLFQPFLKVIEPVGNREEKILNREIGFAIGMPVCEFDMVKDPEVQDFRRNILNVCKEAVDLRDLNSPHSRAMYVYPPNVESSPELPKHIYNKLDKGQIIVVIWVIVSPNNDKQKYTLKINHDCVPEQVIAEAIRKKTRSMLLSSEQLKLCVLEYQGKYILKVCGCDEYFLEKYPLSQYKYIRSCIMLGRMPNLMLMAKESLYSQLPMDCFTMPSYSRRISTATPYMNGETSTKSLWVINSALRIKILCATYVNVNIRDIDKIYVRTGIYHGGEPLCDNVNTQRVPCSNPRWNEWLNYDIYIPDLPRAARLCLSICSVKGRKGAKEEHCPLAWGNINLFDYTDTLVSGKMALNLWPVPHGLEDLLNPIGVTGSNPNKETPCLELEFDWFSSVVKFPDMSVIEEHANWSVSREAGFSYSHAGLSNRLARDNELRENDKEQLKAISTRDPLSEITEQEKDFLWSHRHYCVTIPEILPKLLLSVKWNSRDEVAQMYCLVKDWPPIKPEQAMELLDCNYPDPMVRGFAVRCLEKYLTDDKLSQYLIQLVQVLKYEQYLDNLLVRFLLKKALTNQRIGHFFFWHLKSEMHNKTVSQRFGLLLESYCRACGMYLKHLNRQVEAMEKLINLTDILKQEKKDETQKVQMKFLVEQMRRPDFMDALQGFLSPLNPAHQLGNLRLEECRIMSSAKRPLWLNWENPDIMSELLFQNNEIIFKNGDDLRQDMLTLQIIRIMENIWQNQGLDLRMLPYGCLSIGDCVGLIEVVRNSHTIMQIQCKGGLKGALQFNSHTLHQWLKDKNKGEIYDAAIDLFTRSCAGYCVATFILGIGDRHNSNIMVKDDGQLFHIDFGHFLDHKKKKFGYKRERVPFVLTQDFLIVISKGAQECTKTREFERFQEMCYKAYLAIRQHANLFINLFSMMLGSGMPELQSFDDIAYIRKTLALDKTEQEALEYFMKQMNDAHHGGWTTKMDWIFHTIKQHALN
pIC50: −log10 of the molar value.
Experimental readout: pIC50

1. COc1ncc(-c2cc(OCCCCCCC(=O)Nc3ccccc3N)c3ncnc(C)c3c2)cc1NS(=O)(=O)c1ccc(F)cc1F = 9.64
2. COc1ncc(-c2cc(OCCCCC(=O)Nc3ccccc3N)c3ncnc(C)c3c2)cc1NS(=O)(=O)c1ccc(F)cc1F = 9.70
3. COc1ncc(-c2cc(OCCCCCCCCC(=O)Nc3ccccc3N)c3ncnc(C)c3c2)cc1NS(=O)(=O)c1ccc(F)cc1F = 9.41
4. COc1ncc(-c2cc(OCCCCCC(=O)Nc3ccccc3N)c3ncnc(C)c3c2)cc1NS(=O)(=O)c1ccc(F)cc1F = 9.68
5. COc1ncc(-c2cc(OCCCCCCCCCC(=O)Nc3ccccc3N)c3ncnc(C)c3c2)cc1NS(=O)(=O)c1ccc(F)cc1F = 9.40
6. COc1ncc(-c2cc(OCCOc3ccc(C(=O)Nc4ccccc4N)cc3)c3ncnc(C)c3c2)cc1NS(=O)(=O)c1ccc(F)cc1F = 9.24
7. COc1ncc(-c2cc(OCCCc3ccc(C(=O)Nc4ccccc4N)cc3)c3ncnc(C)c3c2)cc1NS(=O)(=O)c1ccc(F)cc1F = 9.59
8. COc1ncc(-c2cc(OCCCOc3ccc(C(=O)Nc4ccccc4N)cc3)c3ncnc(C)c3c2)cc1NS(=O)(=O)c1ccc(F)cc1F = 9.41
9. COc1ncc(-c2cc(OCCCCCCCC(=O)Nc3ccccc3N)c3ncnc(C)c3c2)cc1NS(=O)(=O)c1ccc(F)cc1F = 9.55
10. COc1ncc(-c2cc(OCCCC(=O)Nc3ccccc3N)c3ncnc(C)c3c2)cc1NS(=O)(=O)c1ccc(F)cc1F = 9.64

---

Protocol description: AUC(0 to infinity) in ICR mouse at 60 mg/kg, po measured after 24 hrs by LC-MS/MS analysis
Format: ADME, organism-based
Assay setup: ICR, in vivo
Experimental readout: AUC(0-inf)

1) COc1ncc(-c2cc(OCCCc3ccc(C(=O)Nc4ccccc4N)cc3)c3ncnc(C)c3c2)cc1NS(=O)(=O)c1ccc(F)cc1F = 1710 ng·h/mL
